# systemTested: T1, human C5 (human, UniProt P01031 19-673; P01031 678-1676, Beta and alpha chains are disulfide-linked and the protein is glycosylated.)
# T1 construct: Either in-house recombinant C5 or plasma derived C5 (CALBIOCHEM) was used; also called recombinant human C5; plasma derived human C5
# assayComment: Biacore, captured antibody, pH 7.4, 37 C;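 further: biacore binding response of anti-C5 antibody light chain variants captured on chip with human C5 injected, ACES running buffer containing 1.2 mM CaCl₂, parent light chain antibody set to 100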
measuredParameter: % binding (parent = 100) (%)
Give bare numbers, in %.

A selection of reference data follows.
binder	unit	% binding (parent = 100)
CFP0017 17L 50E (antibody, V domains shown) VH: QVQLVQSGAEVKKPGSSVKVSCKASGGTFSSYAISWVRQAPGQGLEWMGGIIPIFGTANYAQKFQGRVTITADESTSTAYMELSSLRSEDTAVYYCARGGWWGGALDYWGQGTLVTVSS VL: DIQMTQSPSSLSASVGDRVTITCRASQSIEDDLAWYQQKPGKAPKLLIYEASSLQSGVPSRFSGSGSGTDFTLTISSLQPEDFATYYCQQSDSYPLTFGQGTKVEIK	%	1
CFP0018 18L 32Q (antibody, V domains shown) VH: QVQLVQSGAEVKKPGSSVKVSCKASGGTFSSYAISWVRQAPGQGLEWMGGIIPIFGTANYAQKFQGRVTITADESTSTAYMELSSLRSEDTAVYYCARQLYGYYELDIWGQGTLVTVSS VL: DIQMTQSPSSLSASVGDRVTITCRASQSISDQLAWYQQKPGKAPKLLIYEASSLQSGVPSRFSGSGSGTDFTLTISSLQPEDFATYYCQQYNSYPLTFGQGTKVEIK	%	21.9
CFP0017 17L 50A (antibody, V domains shown) VH: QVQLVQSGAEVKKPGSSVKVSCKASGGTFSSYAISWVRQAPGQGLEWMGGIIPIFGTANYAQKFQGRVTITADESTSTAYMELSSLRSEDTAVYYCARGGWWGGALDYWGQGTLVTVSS VL: DIQMTQSPSSLSASVGDRVTITCRASQSIEDDLAWYQQKPGKAPKLLIYAASSLQSGVPSRFSGSGSGTDFTLTISSLQPEDFATYYCQQSDSYPLTFGQGTKVEIK	%	3.3
CFP0015 15L 91H (antibody, V domains shown) VH: QVQLLESGGGLVQPGGSLRLSCAASGFTFSSYAMSWVRQAPGKGLEWVSAISGSGGSTYYADSVKGRFTISRDNSKNTLYLQMNSLRAEDTAVYYCARGDQIWYDQWYYFDMWGQGTLVTVSS VL: DIQMTQSPSSLSASVGDRVTITCRASQSIEDDLAWYQQKPGKAPKLLIYEASNLQSGVPSRFSGSGSGTDFTLTISSLQPEDFATYYCQQHDSSPLTFGQGTKVEIK	%	81.5

Attention now turns to another entry.
Q: Give the measured % binding (parent = 100) of CFP0011 11L 94Y (antibody, V domains shown) VH: QVQLVQSGAEVKKPGSSVKVSCKASGGTFSSYAISWVRQAPGQGLEWMGGIIPIFGTANYAQKFQGRVTITADESTSTAYMELSSLRSEDTAVYYCARDMSEFLGWSNYYSYPMDVWGQGTTVTVSS VL: DIQMTQSPSSLSASVGDRVTITCRASQSIEDDLAWYQQKPGKAPKLLIYHASSLQSGVPSRFSGSGSGTDFTLTISSLQPEDFATYYCQQSDNYPYTFGQGTKVEIK .
A: -0.7
